molecular target: UniProtKB P00533; test: EGF-Induced BrdU Incorporation Assay in 3T3/EGFR cells; conditions: EGF ligand; read-out: Mitogenesis in 3T3/EGFR Cells, BrdU Incorporation, EGFR EGF Ligand IC50
reported-endpoint: IC50 (µM)
Answer with a number only, understood to be in µM.

Worked cases, answers included:
INSERT INTO results (item_smiles, numeric_readout) VALUES
  ('CCOC(=O)CCc1c(C=C2C(=O)Nc3ccccc32)[nH]c(C(=O)OCC)c1CC(=O)OCC', 50),
  ('COC(=O)CCc1c(C)c[nH]c1C=C1C(=O)Nc2ccccc21', 100),
  ('Cn1cccc1C=C1C(=O)Nc2ccccc21', 95),
  ('CN(C)c1ccc(C=C2C(=O)Nc3ccc(Cl)cc32)cc1', 60),
  ('CCOC(=O)c1c[nH]c(C=C2C(=O)Nc3ccccc32)c1C', 23),
  ('O=C1Nc2ccccc2C1=Cc1c(Br)cnn1Cc1ccc(Cl)cc1', 48),
  ('O=C1Nc2ccccc2C1=Cc1ccc(N2CCCC2)cc1', 17),
  ('Cc1cnc(C=C2C(=O)Nc3ccccc32)s1', 28);

Q: Bench note: what IC50 did "O=C1Nc2ccccc2C1=Cc1ccc(N2CCOCC2)cc1" show?
Ans: 20

Q: Lookup "O=C1Nc2ccccc2C1=Cc1cnc[nH]1"
Ans: 54

---

system: 3T3/PDGFR + PDGF (T) cells; test: 3T3/PDGF-βR/PDGF-BB(T) Cell Growth SRB Assay; type: cell-based; settings: NIH 3T3 cells expressing PDGF-βR and PDGF-ββ, tumor-derived; read-out: Cell Growth Assay, SRB Readout, 3T3/PDGFR + PDGF (T) IC50
reported-endpoint: IC50 (µM)
Answer with a number only, understood to be in µM.

Q: Bench note: what IC50 did "O=CN1CCN(c2ccc(C=C3C(=O)Nc4ccccc43)cc2)CC1" show?
Ans: 22.2

---

system: HUV-EC-C cells; experiment: HUV-EC-C assay, a-FGF (ECGF)-induced [3H]thymidine incorporation; type: cell-based, human; conditions: Homo sapiens, HUVEC; a-FGF-stimulated HUV-EC cells; read-out: Mitogenesis in Endothelial Cells, [3H] Thymidine Incorporation, HUV-EC Assay, a-FGF
reported-endpoint: pIC50
Scale: pIC50 equals -log10([C]), with [C] in mol/L.

INSERT INTO measurements (item_smiles, assayed_system, numeric_readout) VALUES
  ('O=C1Nc2ccccc2C1=Cc1cnc[nH]1', 'HUV-EC-C cells', 4.85);

Q: Bench note: what pIC50 did "CN(C)c1c(C=C2C(=O)Nc3ccccc32)cc(C=C2C(=O)Nc3ccccc32)c(N(C)C)c1C#N" show?
Ans: 5.57

---

target: EGF Receptor (Homo sapiens, UniProt P00533); assay: EGF Receptor ELISA (EGFR-NIH3T3 assay); details: EGFR-NIH3T3 whole cells
Sequence (P00533 25-1210): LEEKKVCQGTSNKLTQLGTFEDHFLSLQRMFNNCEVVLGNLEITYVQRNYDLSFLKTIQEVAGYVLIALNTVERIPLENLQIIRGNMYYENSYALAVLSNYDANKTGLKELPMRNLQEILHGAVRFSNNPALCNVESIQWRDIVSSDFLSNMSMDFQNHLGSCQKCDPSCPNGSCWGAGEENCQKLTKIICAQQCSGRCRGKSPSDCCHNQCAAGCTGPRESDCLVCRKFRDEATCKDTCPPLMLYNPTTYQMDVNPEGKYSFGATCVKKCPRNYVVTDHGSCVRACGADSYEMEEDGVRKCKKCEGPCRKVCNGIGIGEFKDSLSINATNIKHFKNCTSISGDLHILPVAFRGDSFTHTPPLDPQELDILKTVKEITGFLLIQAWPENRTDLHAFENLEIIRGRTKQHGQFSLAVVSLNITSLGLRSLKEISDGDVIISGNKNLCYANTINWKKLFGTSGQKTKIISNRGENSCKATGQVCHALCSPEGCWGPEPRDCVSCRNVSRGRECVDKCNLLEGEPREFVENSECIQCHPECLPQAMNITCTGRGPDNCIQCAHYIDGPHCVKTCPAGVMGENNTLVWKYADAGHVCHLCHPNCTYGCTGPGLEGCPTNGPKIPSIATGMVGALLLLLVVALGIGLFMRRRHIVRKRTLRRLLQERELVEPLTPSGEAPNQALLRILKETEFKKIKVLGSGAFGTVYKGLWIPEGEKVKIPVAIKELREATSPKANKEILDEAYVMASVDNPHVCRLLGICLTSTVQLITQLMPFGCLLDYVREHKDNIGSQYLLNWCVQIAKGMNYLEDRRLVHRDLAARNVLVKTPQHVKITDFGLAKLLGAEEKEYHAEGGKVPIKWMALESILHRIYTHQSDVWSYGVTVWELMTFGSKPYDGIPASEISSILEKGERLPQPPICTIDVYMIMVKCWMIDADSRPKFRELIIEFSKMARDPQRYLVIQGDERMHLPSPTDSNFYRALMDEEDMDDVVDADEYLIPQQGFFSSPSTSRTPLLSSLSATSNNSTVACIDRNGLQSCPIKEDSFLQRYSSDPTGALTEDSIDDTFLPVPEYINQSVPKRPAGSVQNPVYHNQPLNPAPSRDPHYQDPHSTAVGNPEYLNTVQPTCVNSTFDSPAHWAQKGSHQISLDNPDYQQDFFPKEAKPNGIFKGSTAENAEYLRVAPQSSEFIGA
reported-endpoint: pIC50
Scale: pIC50 equals -log10([C]), with [C] in mol/L.

INSERT INTO measurements (item_smiles, reported_endpoint, numeric_readout) VALUES
  ('COc1ccc(C=C2C(=O)Nc3ccccc32)c(Cl)c1', 'pIC50', 4.40);

Q: Bench note: what pIC50 did "CCc1ccc(C=C2C(=O)Nc3ccccc32)s1" show?
Ans: 4.36

Q: Lookup "COc1ccccc1C=C1C(=O)Nc2ccccc21"
Ans: 4.44

---

target: FLK-1 receptor (Mus musculus, UniProt P35918); construct: expressed in transfected cells; host or cells: NIH3T3 C7 #3; assay: FLK-1 ELISA in FLK-1/NIH3T3 cells; type: cell-based; details: ELISA, FLK-1/NIH3T3 cells, VEGF stimulated
Sequence (P35918 20-1345): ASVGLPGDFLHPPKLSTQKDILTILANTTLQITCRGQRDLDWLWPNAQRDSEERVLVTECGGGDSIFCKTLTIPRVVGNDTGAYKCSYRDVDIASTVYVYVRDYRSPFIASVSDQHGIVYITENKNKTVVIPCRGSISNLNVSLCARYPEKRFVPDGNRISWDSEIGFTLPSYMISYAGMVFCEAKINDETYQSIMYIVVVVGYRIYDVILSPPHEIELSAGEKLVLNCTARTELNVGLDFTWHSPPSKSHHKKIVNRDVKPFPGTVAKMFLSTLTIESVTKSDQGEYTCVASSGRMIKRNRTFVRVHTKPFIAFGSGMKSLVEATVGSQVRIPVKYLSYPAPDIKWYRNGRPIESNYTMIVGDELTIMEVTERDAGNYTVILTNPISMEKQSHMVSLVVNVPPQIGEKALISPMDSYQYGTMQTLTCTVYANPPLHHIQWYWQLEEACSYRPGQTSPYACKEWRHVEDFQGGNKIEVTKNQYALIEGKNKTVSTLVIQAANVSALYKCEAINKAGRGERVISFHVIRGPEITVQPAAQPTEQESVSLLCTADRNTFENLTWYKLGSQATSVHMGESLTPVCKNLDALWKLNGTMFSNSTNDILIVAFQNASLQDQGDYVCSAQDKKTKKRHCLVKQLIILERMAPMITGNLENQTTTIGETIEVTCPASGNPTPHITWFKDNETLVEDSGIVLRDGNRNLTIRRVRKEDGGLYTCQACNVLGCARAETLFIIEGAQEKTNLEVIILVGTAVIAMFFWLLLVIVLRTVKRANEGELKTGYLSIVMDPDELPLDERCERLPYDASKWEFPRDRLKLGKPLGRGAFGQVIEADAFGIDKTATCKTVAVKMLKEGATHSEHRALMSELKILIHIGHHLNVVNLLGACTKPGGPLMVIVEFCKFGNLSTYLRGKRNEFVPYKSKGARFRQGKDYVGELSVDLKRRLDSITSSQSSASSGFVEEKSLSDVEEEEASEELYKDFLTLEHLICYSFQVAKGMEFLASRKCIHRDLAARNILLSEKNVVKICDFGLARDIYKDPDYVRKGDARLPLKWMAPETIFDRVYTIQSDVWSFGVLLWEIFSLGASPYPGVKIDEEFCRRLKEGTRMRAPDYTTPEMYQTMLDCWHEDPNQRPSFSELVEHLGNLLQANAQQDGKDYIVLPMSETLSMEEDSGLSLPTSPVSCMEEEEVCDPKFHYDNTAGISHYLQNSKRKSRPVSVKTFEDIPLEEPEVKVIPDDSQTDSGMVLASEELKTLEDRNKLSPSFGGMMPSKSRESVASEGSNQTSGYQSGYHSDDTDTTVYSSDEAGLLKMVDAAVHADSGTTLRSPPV
pIC50: −log10 of the molar value.
Assign class by pIC50: not lower than 5 means t; lower than 5 means f.

See these solved cases before continuing.
INSERT INTO measurements (compound, classification) VALUES
  ('CCOC(=O)c1c(C)[nH]c(C=C2C(=O)Nc3ccccc32)c1C', 't'),
  ('O=C1Nc2ccccc2C1=Cc1ccc(N2CCCCC2)cc1', 't'),
  ('O=C1Nc2ccccc2C1=Cc1ccc([N+](=O)[O-])o1', 'f');

Q: Can "Cc1ccc(C=C2C(=O)Nc3ccccc32)o1" be said to have pIC50 at or above 5?
Ans: f

Q: Lookup "COc1ccc(OC)c(C=C2C(=O)Nc3ccccc32)c1"
Ans: t

Q: Lookup "COc1ccc(C=C2C(=O)Nc3ccccc32)c(Cl)c1"
Ans: t

Q: Lookup "COc1ccccc1C=C1C(=O)Nc2ccccc21"
Ans: f

Q: Lookup "Cc1c[nH]c(C=C2C(=O)Nc3ccccc32)c1C"
Ans: t

Q: Lookup "CSc1ccc(C=C2C(=O)Nc3ccccc32)s1"
Ans: t

Q: Lookup "CCc1c(C=C2C(=O)Nc3ccccc32)[nH]c(C)c1C"
Ans: t

Q: Lookup "O=C1Nc2ccccc2C1=Cc1cnc[nH]1"
Ans: t

Q: Lookup "COC(=O)CCc1c(C)c[nH]c1C=C1C(=O)Nc2ccccc21"
Ans: t

---

target: FLK-1 receptor (Mus musculus, UniProt P35918); construct: expressed in transfected cells; host or cells: NIH3T3 C7 #3; assay: FLK-1 ELISA in FLK-1/NIH3T3 cells; assay type: cell-based; conditions: ELISA, FLK-1/NIH3T3 cells, VEGF stimulated
Below, each entry is listed alongside its reported IC50.
Answer with a number only, understood to be in µM.

Worked cases, answers included:
INSERT INTO measurements (compound, assayed_system, numeric_readout) VALUES
  ('O=C1Nc2ccccc2C1=Cc1ccc(N2CCOCC2)cc1 [SU4981]', 'FLK-1 receptor (Mus musculus, UniProt P35918)', 2.1),
  ('Cc1ccc(C=C2C(=O)Nc3ccccc32)s1 [SU5424]', 'FLK-1 receptor (Mus musculus, UniProt P35918)', 2.4),
  ('Cc1c(CCC(=O)O)c[nH]c1C=C1C(=O)Nc2ccccc21 [SU5402]', 'FLK-1 receptor (Mus musculus, UniProt P35918)', 0.4),
  ('Cc1cc(C=C2C(=O)Nc3ccccc32)[nH]n1 [SU5472]', 'FLK-1 receptor (Mus musculus, UniProt P35918)', 8.7),
  ('CN1C(=O)C(=Cc2ccc(N3CCOCC3)cc2)c2ccccc21 [SU4982]', 'FLK-1 receptor (Mus musculus, UniProt P35918)', 21.6);

Please look at the following compound next.
Q: Bench note: what IC50 did Cc1cnc(C=C2C(=O)Nc3ccccc32)[nH]1 [SU5468] show?
Ans: 2.7

---

target: HER2 Kinase (Homo sapiens); construct: fused on or other part: Candidate partner: EGFR extracellular domain (P00533) in place of HER2's own ectodomain if Assay 1 was used; none if Assay 2 (BT-474) was used; experiment: HER-2 ELISA (whole-cell HER2 kinase activity); conditions: whole cells
Sequence (P04626 720-987 limits assumed): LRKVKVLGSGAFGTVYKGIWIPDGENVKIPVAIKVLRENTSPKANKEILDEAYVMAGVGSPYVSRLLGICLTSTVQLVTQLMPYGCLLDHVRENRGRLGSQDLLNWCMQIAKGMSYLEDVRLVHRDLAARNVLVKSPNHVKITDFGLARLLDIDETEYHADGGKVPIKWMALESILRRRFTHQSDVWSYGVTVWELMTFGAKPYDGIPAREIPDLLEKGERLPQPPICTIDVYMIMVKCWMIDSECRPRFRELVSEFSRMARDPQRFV
reported-endpoint: pIC50
Scale: pIC50 equals -log10([C]), with [C] in mol/L.

Worked cases, answers included:
INSERT INTO assay_data (item_smiles, numeric_readout) VALUES
  ('CN1C(=O)C(=Cc2ccc(Br)cc2)c2ccccc21', 4.65),
  ('CN1C(=O)C(=Cc2ccc(N3CCOCC3)cc2)c2ccccc21', 4.40),
  ('O=CN1CCN(c2ccc(C=C3C(=O)Nc4ccccc43)cc2)CC1', 4.04);

Please look at the following compound next.
Q: Bench note: what pIC50 did "O=C1Nc2ccccc2C1=Cc1ccc(N2CCCCC2)cc1" show?
Ans: 4.03

---

Below, each entry is listed alongside its reported log10 of IC50.
biological target: FLK-1 receptor (Mus musculus); construct: expressed in transfected cells; host or cells: NIH3T3 C7 #3; assay: FLK-1 ELISA in FLK-1/NIH3T3 cells; assay type: cell-based; conditions: ELISA, FLK-1/NIH3T3 cells, VEGF stimulated
Kindly note that the scale is log10 and the underlying IC50 is in µM.

Worked cases, answers included:
INSERT INTO assay_data (compound, reported_endpoint, numeric_readout) VALUES
  ('CCc1ccc(C=C2C(=O)Nc3ccccc32)o1', 'log10 of IC50', 1.61),
  ('CN(C)c1c(C=C2C(=O)Nc3ccccc32)cc(C=C2C(=O)Nc3ccccc32)c(N(C)C)c1C#N', 'log10 of IC50', 0.81);

Q: Bench note: what log10 of IC50 did "CCOC(=O)c1c[nH]c(C=C2C(=O)Nc3ccccc32)c1C" show?
Ans: -0.74

Q: Lookup "O=CN1CCN(c2ccc(C=C3C(=O)Nc4ccccc43)cc2)CC1"
Ans: 0.20

Q: Lookup "O=C1Nc2ccccc2C1=Cc1ccc(Br)s1"
Ans: 1.71

---

Below, each entry is listed alongside its reported pIC50.
biological target: FLK-1 receptor (Mus musculus, UniProt P35918); construct: expressed in transfected cells; host or cells: NIH3T3 C7 #3; experiment: FLK-1 ELISA in FLK-1/NIH3T3 cells; format: cell-based; conditions: ELISA, FLK-1/NIH3T3 cells, VEGF stimulated
Scale: pIC50 equals -log10([C]), with [C] in mol/L.

Worked cases, answers included:
INSERT INTO measurements (compound, numeric_readout) VALUES
  ('Cc1[nH]c(C=C2C(=O)Nc3ccccc32)c(Br)c1Br', 5.74),
  ('CC(=O)Nc1ccc(C=C2C(=O)Nc3ccccc32)cc1 [SU4944]', 5.07),
  ('Cn1cccc1C=C1C(=O)Nc2ccccc21', 4.69),
  ('O=C1Nc2ccccc2C1=Cc1cccs1 [SU5208, 3-[(Thien-2-yl)methylene]-2-indolinone]', 5.33),
  ('CCc1c(C)[nH]c(C=C2C(=O)Nc3ccccc32)c1C', 6.82);

Q: Bench note: what pIC50 did "O=C1Nc2ccccc2C1=Cc1ccc(F)cc1" show?
Ans: 5.02

Cited source for all entries: patent US6906093B2
